Assign IC50 to each entry below.
- Test system: AMO-1 human multiple myeloma tumor cell line
- Protocol Description: AMO-1 cell viability assay (CellTiter-Glo, 24 hours)
- Type: cell-based
- Assay Conditions: Homo sapiens, AMO1, 24 h, read-out: AMO-1 Viability IC50 (μM, 10% FBS), 10% FBS, 24 hours of compound treatment
Record the result as a number with its unit.

Compound: Cc1c(Cl)c2c(Cl)c(C)c1-c1c(-c3ccc(F)cc3)sc3ncnc(c13)O[C@@H](C(=O)O)Cc1cc(ccc1OCc1ccnc(-c3ccccc3OC[C@H](O)CO)n1)OC[C@@H](CN1CCN(C)CC1)O2 [Example 23]
IC50: 2.22 nM
//
Compound: Cc1c2ccc(c1Cl)O[C@H](CN1CCN(C)CC1)COc1ccc(OCc3ccnc(-c4ccccc4C(=O)O)n3)c(c1)C[C@H](C(=O)O)Oc1ncnc3sc(-c4ccc(F)cc4)c-2c13 (atropisomer, axis not shown) [Example 19]
IC50: 96.3 nM
//
Compound: COCCOCCOCCOCC1(F)CC=C(c2nccc(COc3ccc4cc3C[C@H](C(=O)O)Oc3ncnc5sc(C6=CCCC6)c(c35)-c3c(C)c(Cl)c(c(Cl)c3C)O[C@H](CN3CCN(C)CC3)CO4)n2)CC1 (single isomer, unassigned) [Example 125]
IC50: 0.288 nM
//
Compound: COCCOCCOCCOCCOCCO[C@H]1CC[C@H](c2nccc(COc3ccc4cc3C[C@H](C(=O)O)Oc3ncnc5sc(-c6ccc(F)cc6)c(c35)-c3c(C)c(Cl)c(c(Cl)c3C)O[C@H](CN3CCN(C)CC3)CO4)n2)CC1 [Example 66]
IC50: 0.876 nM

Hello, I would appreciate it if you could give IC50 for each entry below.
1. COCCOCCOCCOCCOCCOCCO[C@H]1CC[C@H](c2nccc(COc3ccc4cc3C[C@H](C(=O)O)Oc3ncnc5sc(-c6ccc(F)cc6)c(c35)-c3c(C)c(Cl)c(c(Cl)c3C)O[C@H](CN3CCN(C)CC3)CO4)n2)CC1 [Example 67]
2. COCCOCCOCCOCCOCCOCCOCCOCCOCCOCCOCCOCCOCC1(c2nccc(COc3ccc4cc3C[C@H](C(=O)O)Oc3ncnc5sc(-c6ccc(F)cc6)c(c35)-c3c(C)c(Cl)c(c(Cl)c3C)O[C@H](CN3CCN(C)CC3)CO4)n2)CCC1 [Example 44]
3. Cc1c(Cl)c2c(Cl)c(C)c1-c1c(-c3ccc(F)cc3)sc3ncnc(c13)O[C@@H](C(=O)O)Cc1cc(ccc1OCc1ccnc(-c3ccc(CCN4CCOCC4)cc3)n1)OC[C@@H](CN1CCN(C)CC1)O2 [Example 142]
4. Cc1c(Cl)c2c(Cl)c(C)c1-c1c(-c3ccc(F)cc3)sc3ncnc(c13)O[C@@H](C(=O)O)Cc1cc(ccc1OCc1ccnc(-c3ccc(OCCN4CC5CCC(C4)O5)cc3)n1)OC[C@@H](CN1CCN(C)CC1)O2 [Example 170]
5. Cc1c(Cl)c2c(Cl)c(C)c1-c1c(-c3ccc(F)cc3)sc3ncnc(c13)O[C@@H](C(=O)O)Cc1cc(ccc1OCc1ccnc(-c3ccc(O[C@H]4CO[C@H]5[C@@H]4OC[C@H]5O)cc3)n1)OC[C@@H](CN1CCN(C)CC1)O2 [Example 161]

## Result
1.1 nM
21.1 nM
0.0488 nM
0.646 nM
0.262 nM

###

- Test system: AMO-1 human multiple myeloma tumor cell line
- Protocol Description: AMO-1 cell viability assay (CellTiter-Glo, 24 hours)
- Type: cell-based
- Assay Conditions: Homo sapiens, AMO1, 24 h, read-out: AMO-1 Viability IC50 (μM, 10% FBS), 10% FBS, 24 hours of compound treatment
Result Type: IC50

Molecule: Cc1c2ccc(c1Cl)O[C@H](CN1CCN(C)CC1)COc1ccc(OCc3ccnc(-c4ccccc4OCC(=O)O)n3)c(c1)C[C@H](C(=O)O)Oc1ncnc3sc(-c4ccc(F)cc4)c-2c13 (atropisomer, axis not shown) [Example 24]
Assay System: AMO-1 human multiple myeloma tumor cell line
Result: 0.0385 µM
//
Molecule: Cc1c(Cl)c2c(Cl)c(C)c1-c1c(-c3ccc(F)cc3)sc3ncnc(c13)O[C@@H](C(=O)O)Cc1cc(ccc1OCc1ccnc(-c3cccc(CN4CCOCC4)c3)n1)OC[C@@H](CN1CCN(C)CC1)O2 [Example 147]
Assay System: AMO-1 human multiple myeloma tumor cell line
Result: 0.000204 µM
//
Molecule: Cc1c(Cl)c2c(Cl)c(C)c1-c1c(-c3ccc(F)cc3)sc3ncnc(c13)O[C@@H](C(=O)O)Cc1cc(ccc1OCc1ccnc(-c3ccc(CCC(=O)O)cc3)n1)OC[C@@H](CN1CCN(C)CC1)O2 [Example 20]
Assay System: AMO-1 human multiple myeloma tumor cell line
Result: 0.00425 µM

The molecule Cc1c(Cl)c2c(Cl)c(C)c1-c1c(-c3ccc(F)cc3)sc3ncnc(c13)O[C@@H](C(=O)O)Cc1cc(ccc1OCc1ccnc(-c3ccc(OC[C@H]4CN(C)CCO4)cc3)n1)OC[C@@H](CN1CCN(C)CC1)O2 [Example 158] showed IC50 equal to 0.000258 µM

###

Assign Ki to each entry below.
- Assay System: GST-MCL-1 (Homo sapiens)
- Sequence (Q07820 whole entry): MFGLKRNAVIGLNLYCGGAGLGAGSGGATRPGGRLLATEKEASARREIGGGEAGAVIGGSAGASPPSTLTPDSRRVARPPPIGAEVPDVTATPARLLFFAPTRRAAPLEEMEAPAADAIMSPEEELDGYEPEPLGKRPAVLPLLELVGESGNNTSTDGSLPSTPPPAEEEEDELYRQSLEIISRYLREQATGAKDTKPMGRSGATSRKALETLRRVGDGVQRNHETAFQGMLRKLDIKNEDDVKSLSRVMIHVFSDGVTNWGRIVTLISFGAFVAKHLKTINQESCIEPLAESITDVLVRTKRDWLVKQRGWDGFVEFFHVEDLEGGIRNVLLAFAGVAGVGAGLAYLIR
- Protocol Description: TR-FRET MCL-1 binding assay (competition with probe F-Bak)
- Assay Conditions: MCL-1 Binding Ki (nM, 10% HS), in the presence of 10% HS (human serum)
One number for each entry, in nM.

Some solved entries appear below for comparison.
Compound: Cc1c(Cl)c2c(Cl)c(C)c1-c1c(-c3ccc(F)cc3)sc3ncnc(c13)O[C@@H](C(=O)O)Cc1cc(ccc1OCc1ccnc(N3CCS(=O)(=O)CC3)n1)OC[C@@H](CN1CCN(C)CC1)O2
Ki [nM]: 2.67

Compound: CO[C@@H]1CO[C@H]2[C@@H]1OC[C@H]2OCCOCCOc1nccc(COc2ccc3cc2C[C@H](C(=O)O)Oc2ncnc4sc(-c5ccc(F)cc5)c(c24)-c2c(C)c(Cl)c(c(Cl)c2C)O[C@H](CN2CCN(C)CC2)CO3)n1
Ki [nM]: 0.168

Hello, I would appreciate it if you could give Ki for each entry below.
1. COCCOCCOCCOCC1(c2nccc(COc3ccc4cc3C[C@H](C(=O)O)Oc3ncnc5sc(-c6ccc(F)cc6)c(c35)-c3c(C)c(Cl)c(c(Cl)c3C)O[C@H](CN3CCN(C)CC3)CO4)n2)CCC1
2. COCCOCCOCCOCCOCCOCC1(c2nccc(COc3ccc4cc3C[C@H](C(=O)O)Oc3ncnc5sc(-c6ccc(F)cc6)c(c35)-c3c(C)c(Cl)c(c(Cl)c3C)O[C@H](CN3CCN(C)CC3)CO4)n2)CCC1
3. Cc1c2ccc(c1Cl)O[C@H](CN1CCN(C)CC1)COc1ccc(OCc3ccnc(-c4ccccc4C(=O)O)n3)c(c1)C[C@H](C(=O)O)Oc1ncnc3sc(-c4ccc(F)cc4)c-2c13 (atropisomer, axis not shown)
4. Cc1c2ccc(c1Cl)O[C@H](CN1CCN(C)CC1)COc1ccc(OCc3ccnc(-c4cccc(=O)n4C)n3)c(c1)C[C@H](C(=O)O)Oc1ncnc3sc(-c4ccc(F)cc4)c-2c13
5. COCCOCCOCCOCCOCC1(F)CC=C(c2nccc(COc3ccc4cc3C[C@H](C(=O)O)Oc3ncnc5sc(-c6ccc(F)cc6)c(c35)-c3c(C)c(Cl)c(c(Cl)c3C)O[C@H](CN3CCN(C)CC3)CO4)n2)CC1 (single isomer, unassigned) [Example 106]
6. Cc1c(Cl)c2c(Cl)c(C)c1-c1c(-c3ccc(F)cc3)sc3ncnc(c13)O[C@@H](C(=O)O)Cc1cc(ccc1OCc1ccnc(-c3ccc(CCN4CCOCC4)cc3)n1)OC[C@@H](CN1CCN(C)CC1)O2
7. Cc1c(Cl)c2c(Cl)c(C)c1-c1c(-c3ccc(F)cc3)sc3ncnc(c13)O[C@@H](C(=O)O)Cc1cc(ccc1OCc1ccnc(-c3ccc(OC[C@H]4CN(C)CCO4)cc3)n1)OC[C@@H](CN1CCN(C)CC1)O2

## Result
0.343
0.122
0.069
0.027
0.166
0.776
0.41

###

Assign pKi to each entry below.
- Assay System: GST-MCL-1 (Homo sapiens)
- Protocol Description: TR-FRET MCL-1 binding assay (competition with probe F-Bak)
- Assay Conditions: without HS; read-out: MCL-1 Binding Ki
Numbers only, as −log10 of the molar value.

Smi: COCCOCCOCCOCCOCCOCC1(c2nccc(COc3ccc4cc3C[C@H](C(=O)O)Oc3ncnc5sc(-c6ccc(F)cc6)c(c35)-c3c(C)c(Cl)c(c(Cl)c3C)O[C@H](CN3CCN(C)CC3)CO4)n2)CCC1
pKi: 10.33
--
Smi: Cc1c(Cl)c2c(Cl)c(C)c1-c1c(-c3ccc(F)cc3)sc3ncnc(c13)O[C@@H](C(=O)O)Cc1cc(ccc1OCc1ccnc([C@H]3CC[C@@H](CC(=O)O)CC3)n1)OC[C@@H](CN1CCN(C)CC1)O2
pKi: 11.40

Hello, I would appreciate it if you could give pKi for each entry below.
1. COC[C@@H](COc1ccc(-c2nccc(COc3ccc4cc3C[C@H](C(=O)O)Oc3ncnc5sc(-c6ccc(F)cc6)c(c35)-c3c(C)c(Cl)c(c(Cl)c3C)O[C@H](CN3CCN(C)CC3)CO4)n2)cc1)OC
2. COCCOCCOCCOCC1CN(c2nccc(COc3ccc4cc3C[C@H](C(=O)O)Oc3ncnc5sc(-c6ccc(F)cc6)c(c35)-c3c(C)c(Cl)c(c(Cl)c3C)O[C@H](CN3CCN(C)CC3)CO4)n2)C1
3. COCCOCCOCCO[C@H]1CC[C@H](c2nccc(COc3ccc4cc3C[C@H](C(=O)O)Oc3ncnc5sc(C6CCC6)c(c35)-c3c(C)c(Cl)c(c(Cl)c3C)O[C@H](CN3CCN(C)CC3)CO4)n2)CC1

## Result
1: 10.57; 2: 9.74; 3: 10.62

Origin of the recorded values: patent US20250313572A1
